Data credit: FireProtDB (doi:10.1111/j.1432-1033.1991.tb16033.x)

B1: Ribonuclease HI, P0A7Y4 (parent)
chain: MLKQVEIFTDGSCLGNPGPGGYGAILRYRGREKTFSAGYTRTTNNRMELMAAIVALEALKEHCEVILSTDSQYVRQGITQWIHNWKKRGWKTADKKPVKNVDLWQRLDAALGQHQIKWEWVKGHAGHPENERCDELARAAAMNPTLEDTGYQVEV

variants of: B1; conditions: Escherichia coli (strain K12); pH 5.5; 25 °C; GdnHCl; Fluorescence; Sodium acetate 20 mM; NaCl 0.1 M; reversible: yes; structure 2RN2; whole UniProt chain shown
Below is a list of entries, each paired with its recorded denaturant m value value.
State the answer as a number, implicitly in kcal/mol/M.

Hello, please tell me recorded denaturant m value for this one: H114A
4.23

Check the records and state denaturant m value for H127A
4.98

Specify measured denaturant m value for H124A .
5.36

Consider the variant H62A and give its recorded denaturant m value.
5.19
